Molecular target: periostin (Homo sapiens) (UniProt Q15063)
Sequence: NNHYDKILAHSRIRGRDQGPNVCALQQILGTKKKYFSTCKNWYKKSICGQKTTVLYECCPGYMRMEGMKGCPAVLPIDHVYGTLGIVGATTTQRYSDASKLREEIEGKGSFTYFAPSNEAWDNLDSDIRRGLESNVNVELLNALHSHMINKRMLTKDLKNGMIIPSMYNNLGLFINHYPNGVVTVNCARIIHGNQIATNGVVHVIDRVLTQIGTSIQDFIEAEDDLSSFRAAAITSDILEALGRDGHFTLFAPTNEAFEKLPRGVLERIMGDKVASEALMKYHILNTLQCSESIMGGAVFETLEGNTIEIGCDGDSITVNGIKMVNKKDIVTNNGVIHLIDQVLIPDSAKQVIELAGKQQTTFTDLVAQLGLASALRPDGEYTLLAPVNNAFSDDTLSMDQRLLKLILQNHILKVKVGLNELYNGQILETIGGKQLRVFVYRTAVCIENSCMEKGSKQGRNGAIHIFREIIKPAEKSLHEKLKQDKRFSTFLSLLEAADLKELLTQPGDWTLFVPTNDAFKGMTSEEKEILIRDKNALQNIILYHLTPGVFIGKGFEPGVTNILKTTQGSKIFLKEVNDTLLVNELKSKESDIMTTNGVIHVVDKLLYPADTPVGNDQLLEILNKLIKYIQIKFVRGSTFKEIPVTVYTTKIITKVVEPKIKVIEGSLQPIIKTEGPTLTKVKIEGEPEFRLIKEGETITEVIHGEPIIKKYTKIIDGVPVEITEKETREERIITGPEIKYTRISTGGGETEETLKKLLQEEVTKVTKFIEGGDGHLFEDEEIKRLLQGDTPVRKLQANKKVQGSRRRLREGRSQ
Experiment: filter
Details: BndU at all n [BndU at 6,8,11,14,15,18,22,25,26,29,31,32,37,39,44]; Bmax 90%
VALUE KIND: pKd
Schema: pKd number; meaning minus log10 of the concentration expressed in molar units.

For ACGAGTCTGGTCCTTCCTCCCTAATTGCTGTTGAGGTATCGGCTACAACAA [PNDA-4] the sequence record lists pKd as 9.00

----------
Molecular target: periostin (Homo sapiens)
Sequence: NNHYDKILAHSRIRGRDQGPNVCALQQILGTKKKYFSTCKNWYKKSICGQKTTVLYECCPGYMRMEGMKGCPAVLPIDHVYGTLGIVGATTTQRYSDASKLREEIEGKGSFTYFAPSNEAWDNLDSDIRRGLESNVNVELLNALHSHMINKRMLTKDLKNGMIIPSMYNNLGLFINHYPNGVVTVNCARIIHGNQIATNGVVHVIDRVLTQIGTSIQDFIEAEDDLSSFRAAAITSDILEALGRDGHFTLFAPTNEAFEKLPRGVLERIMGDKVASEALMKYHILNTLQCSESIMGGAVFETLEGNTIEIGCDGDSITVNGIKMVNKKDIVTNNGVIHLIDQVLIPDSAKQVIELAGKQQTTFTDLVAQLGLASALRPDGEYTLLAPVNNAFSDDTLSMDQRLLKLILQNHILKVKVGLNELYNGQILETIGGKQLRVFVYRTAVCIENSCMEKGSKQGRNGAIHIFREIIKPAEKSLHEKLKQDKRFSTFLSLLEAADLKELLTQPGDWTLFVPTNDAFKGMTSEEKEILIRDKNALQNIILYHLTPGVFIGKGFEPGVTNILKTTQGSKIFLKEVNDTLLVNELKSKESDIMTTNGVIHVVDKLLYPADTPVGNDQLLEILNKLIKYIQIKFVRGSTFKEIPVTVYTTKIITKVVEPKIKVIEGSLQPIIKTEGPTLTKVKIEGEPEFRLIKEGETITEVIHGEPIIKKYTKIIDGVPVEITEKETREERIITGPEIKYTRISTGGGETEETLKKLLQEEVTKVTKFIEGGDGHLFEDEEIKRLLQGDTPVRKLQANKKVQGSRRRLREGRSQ
Experiment: filter
Details: BndU at all n [BndU at 6,7,9,14,16,21,22,26,28,31,34,35,44]; Bmax 95%
VALUE KIND: pKd
Answer as the number alone; pKd is minus log10 of concentration in mol/L.

Input ACGAGTTGTCGCATGTGCGGTTCAGTCTGGTCCTTCAGCACCGTACAACAA [PNDA-3] . Output pKd: 8.97
